Biological target: δ opioid receptor (Rattus norvegicus)
Construct: Rat membrane synaptosome preparations (P2 fraction) were prepared as detailed previously; from tissue; host or cells: rat synaptosomal membranes (P2 fraction)
Sequence (P33533 whole entry): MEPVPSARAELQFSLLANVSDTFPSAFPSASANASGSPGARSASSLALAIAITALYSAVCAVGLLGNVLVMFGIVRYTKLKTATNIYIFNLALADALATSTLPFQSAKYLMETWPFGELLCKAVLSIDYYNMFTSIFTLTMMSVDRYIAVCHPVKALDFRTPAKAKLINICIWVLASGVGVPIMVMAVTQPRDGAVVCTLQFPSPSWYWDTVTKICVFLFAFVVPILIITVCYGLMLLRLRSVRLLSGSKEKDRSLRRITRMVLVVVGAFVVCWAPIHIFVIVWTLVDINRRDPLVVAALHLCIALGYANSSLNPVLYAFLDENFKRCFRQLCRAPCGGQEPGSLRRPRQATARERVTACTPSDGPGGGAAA
Experiment: δ receptor binding, rat membrane synaptosomes, [3H]DPDPE
Details: [3H]DPDPE, rat synaptosomes (P2), mean ± SEM
Non-standard residues stand in square brackets, D forms with d. Residues, ends and D or L forms follow the SMILES beside them. Dmt = Cc1cc(O)cc(C)c1C[C@H](N)C(=O)O; Tic = O=C(O)[C@@H]1Cc2ccccc2CN1; dTic = O=C(O)[C@H]1Cc2ccccc2CN1
Each entry falls in a class defined on Ki; the bands are bin A (below 50 nM), bin B (50 nM to below 2000 nM), bin C (2000 nM or more)

compound: C[C@H](NC(=O)[C@H]1Cc2ccccc2CN1C(=O)[C@@H](N)Cc1ccc(O)cc1)C(=O)O [Peptide 21, Tyr-D-Tic-Ala-OH, reference compound] (H-Tyr-[dTic]-Ala-OH)
assigned.category: bin C
--
compound: Cc1cc(O)cc(C)c1C[C@H](N)C(=O)N1Cc2ccccc2C[C@@H]1C(=O)N[C@@H](C)C(N)=O [Peptide 11, Dmt-D-Tic-Ala-NH2] (H-[Dmt]-[dTic]-Ala-NH2)
assigned.category: bin A
--
compound: Cc1cc(O)cc(C)c1C[C@@H]1NC(=O)[C@H]2Cc3ccccc3CN2C1=O [Peptide 7, c(Dmt-D-Tic)]
assigned.category: bin B
--
compound: O=C1N[C@@H](Cc2ccc(O)cc2)C(=O)N2Cc3ccccc3C[C@@H]12 [Peptide 17, c(Tyr-Tic), reference compound]
assigned.category: bin C
--
compound: N[C@@H](Cc1ccc(O)cc1)C(=O)N1Cc2ccccc2C[C@@H]1C(=O)O [Peptide 14, Tyr-D-Tic-OH, reference compound] (H-Tyr-[dTic]-OH)
assigned.category: bin C
--
compound: Cc1cc(O)cc(C)c1C[C@H](N)C(=O)N1Cc2ccccc2C[C@@H]1C(=O)N[C@@H](C)C(=O)O [Peptide 10, Dmt-D-Tic-Ala-OH] (H-[Dmt]-[dTic]-Ala-OH)
assigned.category: bin B
--
compound: Cc1cc(O)cc(C)c1C[C@H](N)C(=O)N1Cc2ccccc2C[C@H]1C(=O)N[C@@H](C)C(=O)O [Peptide 8, Dmt-Tic-Ala-OH] (H-[Dmt]-[Tic]-Ala-OH)
assigned.category: bin A
--
compound: O=C1N[C@@H](Cc2ccc(O)cc2)C(=O)N2Cc3ccccc3C[C@H]12 [Peptide 18, c(Tyr-D-Tic), reference compound]
assigned.category: bin C
--
compound: N[C@@H](Cc1ccc(O)cc1)C(=O)N1Cc2ccccc2C[C@H]1CO [Peptide 16, Tyr-Tic-CH2 OH, reference compound]
assigned.category: bin B
--
compound: Cc1cc(O)cc(C)c1C[C@H](N)C(=O)N1Cc2ccccc2C[C@H]1C(N)=O [Peptide 2, Dmt-Tic-NH2] (H-[Dmt]-[Tic]-NH2; N-terminus assumed)
assigned.category: bin A
--
compound: Cc1cc(O)cc(C)c1C[C@H](N)C(=O)N1Cc2ccccc2C[C@@H]1C(N)=O [Peptide 4, Dmt-D-Tic-NH2] (H-[Dmt]-[dTic]-NH2; N-terminus assumed)
assigned.category: bin B
--
compound: Cc1cc(O)cc(C)c1C[C@H](N)C(=O)N1Cc2ccccc2C[C@H]1CO [Peptide 5, Dmt-Tic--CH2 OH]
assigned.category: bin A

Source listed as patent US5780589A.
